# RUN_DESCRIPTION: in vivo
# STATED_CONDITIONS: male, Hsd:ICR (CD-1), mouse, plasma, iv, 18 mg/kg
In this section, each of the compounds is paired with its reported log10(concentration at 1 h).
Short version: log10 scale, concentration at 1 h, ng/mL.

Sample Cl.Cl.N[C@H]1CC[C@H](Nc2nc(NC3CCN(C(=O)Oc4ccc(Br)cc4)CC3)c3ncn(C4CCCC4)c3n2)CC1 [compound 81, dihydrochloride] ; log10(concentration at 1 h) observed: 1.81

Item: Cl.Cl.N[C@H]1CC[C@H](Nc2nc(NC3CCN(C(=O)c4cccc(C(F)(F)F)c4F)CC3)c3ncn(C4CCCC4)c3n2)CC1 [compound 12, dihydrochloride] | log10(concentration at 1 h): 2.67

New cases:
Record COC(=O)c1ccc(OC(=O)N2CCC(Nc3nc(N[C@H]4CC[C@H](N)CC4)nc4c3ncn4C3CCCC3)CC2)cc1.Cl.Cl [compound 83, dihydrochloride] . Reported log10(concentration at 1 h): 1.15

Given item Cl.Cl.N[C@H]1CC[C@H](Nc2nc(NC3CCN(C(=O)Oc4ccccc4)CC3)c3ncn(C4CCCC4)c3n2)CC1 [compound 85, dihydrochloride] , the value recorded as its log10(concentration at 1 h) is 1.95

Form field log10(concentration at 1 h), entry COC(=O)c1ccccc1S(=O)(=O)N1CCC(Nc2nc(N[C@H]3CC[C@H](N)CC3)nc3c2ncn3C2CCCC2)CC1.Cl.Cl [compound 111, dihydrochloride] : 2.53

---

Below: a set of entries, each annotated with reported concentration at 0.5 h.
# RUN_DESCRIPTION: in vivo
# STATED_CONDITIONS: male, Hsd:ICR (CD-1), mouse, plasma, iv, 18 mg/kg
The reply should be a number in ng/mL, with the unit left off.

The following molecules have reported results that may help.
concentration at 0.5 h in this record for Cl.Cl.N[C@H]1CC[C@H](Nc2nc(NC3CCN(C(=O)c4cccc(C(F)(F)F)c4F)CC3)c3ncn(C4CCCC4)c3n2)CC1 [compound 12, dihydrochloride] : 1090

// field: concentration at 0.5 h; key: COC(=O)c1ccccc1S(=O)(=O)N1CCC(Nc2nc(N[C@H]3CC[C@H](N)CC3)nc3c2ncn3C2CCCC2)CC1.Cl.Cl [compound 111, dihydrochloride] ; value = 588

The recorded concentration at 0.5 h for entry Cl.Cl.N[C@H]1CC[C@H](Nc2nc(NC3CCN(C(=O)Oc4ccc(Br)cc4)CC3)c3ncn(C4CCCC4)c3n2)CC1 [compound 81, dihydrochloride] equals 164

Reported concentration at 0.5 h ( COc1ccc(OC(=O)N2CCC(Nc3nc(N[C@H]4CC[C@H](N)CC4)nc4c3ncn4C3CCCC3)CC2)cc1.Cl.Cl [compound 84, dihydrochloride] ) = 446

Given item Cl.Cl.N[C@H]1CC[C@H](Nc2nc(NC3CCN(C(=O)Oc4ccccc4)CC3)c3ncn(C4CCCC4)c3n2)CC1 [compound 85, dihydrochloride] , the value recorded as its concentration at 0.5 h is 164

For reference, reported concentration at 0.5 h for Cl.Cl.N#Cc1ccc(S(=O)(=O)N2CCC(Nc3nc(N[C@H]4CC[C@H](N)CC4)nc4c3ncn4C3CCCC3)CC2)cc1 [compound 109, dihydrochloride] stands at 514

New cases:
Looking up CCOC(=O)c1ccc(NC(=O)N2CCC(Nc3nc(N[C@H]4CC[C@H](N)CC4)nc4c3ncn4C3CCCC3)CC2)cc1.Cl.Cl [compound 154, dihydrochloride] , I see its concentration at 0.5 h listed as 377

Lookup result for COC(=O)c1ccc(OC(=O)N2CCC(Nc3nc(N[C@H]4CC[C@H](N)CC4)nc4c3ncn4C3CCCC3)CC2)cc1.Cl.Cl [compound 83, dihydrochloride] ; measured concentration at 0.5 h: 61.3

---

# ASSAY_TARGET: cdk4/cyclin D1 (Homo sapiens, UniProt P11802)
# Sequence (P11802 whole entry): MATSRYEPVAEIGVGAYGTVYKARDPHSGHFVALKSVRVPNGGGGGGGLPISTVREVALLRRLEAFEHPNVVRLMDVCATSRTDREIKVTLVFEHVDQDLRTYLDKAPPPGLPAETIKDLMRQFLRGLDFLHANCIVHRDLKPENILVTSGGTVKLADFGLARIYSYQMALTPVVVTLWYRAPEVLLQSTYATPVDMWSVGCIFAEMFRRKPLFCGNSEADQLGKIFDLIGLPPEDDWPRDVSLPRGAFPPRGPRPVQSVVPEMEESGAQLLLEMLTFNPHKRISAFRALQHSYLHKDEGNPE
# Sequence (P24385 whole entry partner): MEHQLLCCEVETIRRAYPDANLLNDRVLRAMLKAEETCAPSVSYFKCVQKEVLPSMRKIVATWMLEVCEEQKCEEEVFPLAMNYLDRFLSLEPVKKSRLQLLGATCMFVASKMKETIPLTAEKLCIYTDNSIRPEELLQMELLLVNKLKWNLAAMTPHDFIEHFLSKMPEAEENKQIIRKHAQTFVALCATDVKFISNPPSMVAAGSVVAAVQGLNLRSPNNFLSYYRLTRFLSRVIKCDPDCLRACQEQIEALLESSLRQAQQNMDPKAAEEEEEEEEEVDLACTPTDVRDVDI
# RUN_DESCRIPTION: Cyclin-dependent kinase assay, cdk4/cyclin D1
# Format: biochemical
# STATED_CONDITIONS: cyclin D1/cdk4; GST-pRb substrate, 10 µM ATP
Where a name gives a salt, the structure may show the parent alone.
TEST_READOUT: IC50 (nM)
Lab book: enter the figure in nM, no units written.

// worked examples, IC50 included
The recorded IC50 for entry N[C@H]1CC[C@H](Nc2nc(NC3CCN(C(=O)Nc4ccccc4OC(F)(F)F)CC3)c3ncn(C4CCCC4)c3n2)CC1 [compound 174, dihydrochloride] equals 795

Looking up N[C@H]1CC[C@H](Nc2nc(NC3CCN(S(=O)(=O)c4cccc5ccccc45)CC3)c3ncn(C4CCCC4)c3n2)CC1 [compound 123, dihydrochloride] , I see its IC50 listed as 49

// recorded IC50 for N[C@H]1CC[C@H](Nc2nc(NC3CCN(C(=O)Nc4cccc(C(F)(F)F)c4)CC3)c3ncn(C4CCCC4)c3n2)CC1 [compound 159, dihydrochloride] : 702

CC(C)n1cnc2c(NC3CCN(S(=O)(=O)c4ccc(C#N)cc4)CC3)nc(N[C@H]3CC[C@H](N)CC3)nc21 [compound 145, dihydrochloride] yielded IC50 of 8800

The compound N[C@H]1CC[C@H](Nc2nc(NC3CCN(C(=O)Nc4ccc(F)cc4C(F)(F)F)CC3)c3ncn(C4CCCC4)c3n2)CC1 [compound 202, dihydrochloride] showed IC50 equal to 673

With those in mind, consider the next compound.
get_value(item= N[C@H]1CC[C@H](Nc2nc(NC3CCN(C(=O)c4ccc(Cl)c(Cl)c4)CC3)c3ncn(C4CCCC4)c3n2)CC1 , readout=IC50) returns 732

---

# ASSAY_TARGET: cdk4/cyclin D1 (Homo sapiens)
# RUN_DESCRIPTION: Cyclin-dependent kinase assay, cdk4/cyclin D1
# Type: biochemical
# STATED_CONDITIONS: cyclin D1/cdk4; GST-pRb substrate, 10 µM ATP
Counter-ions that a name gives are not always drawn.
TEST_READOUT: IC50
The reply should read as a number followed by its unit.

Use these answered entries as a reference point.
Entry N[C@H]1CC[C@H](Nc2nc(NC3CCN(C(=O)c4ccc(C(F)(F)F)cc4)CC3)c3ncn(C4CCCC4)c3n2)CC1 [compound 2, dihydrochloride] , IC50 reported as 427 nM

Note to self: IC50 recorded for CCOC(=O)N1CCC(Nc2nc(N[C@H]3CC[C@H](N)CC3)nc3c2ncn3C(C)C)CC1 [compound 104, dihydrochloride] was 8000 nM

Now for the compound whose IC50 we want.
IC50 recorded for this compound, COc1ccc(NC(=O)N2CCC(Nc3nc(N[C@H]4CC[C@H](N)CC4)nc4c3ncn4C3CCCC3)CC2)c(OC)c1 [compound 151, dihydrochloride] , is 391 nM

---

# ASSAY_TARGET: cdk2/cyclin E (Homo sapiens)
# RUN_DESCRIPTION: Cyclin-dependent kinase assay, cdk2/cyclin E
# STATED_CONDITIONS: CDK2 IC50, nM, GST-pRb substrate, 10 µM ATP
Structures can show the parent of a compound that is named as a salt.
# strict inequality: IC50 < 20 nM yields True, everything else yields False

q: Regarding C=CCCC(=O)N1CCC(Nc2nc(N[C@H]3CC[C@H](N)CC3)nc3c2ncn3C2CCCC2)CC1 [compound 49, dihydrochloride] , kindly confirm whether its IC50 is beneath 20 nM.
a: False

q: Identify whether the compound CCOC(=O)N1CCC(Nc2nc(N[C@H]3CC[C@H](N)CC3)nc3c2ncn3C2CCCC2)CC1 [compound 93, dihydrochloride] records IC50 below 20 nM.
a: True

q: Record N[C@H]1CC[C@H](Nc2nc(NC3CCN(C(=O)/C=C/c4cccc(C(F)(F)F)c4)CC3)c3ncn(C4CCCC4)c3n2)CC1 [compound 44, dihydrochloride] : is its IC50 strictly below 20 nM?
a: False

q: Problem: For the compound CCCCS(=O)(=O)N1CCC(Nc2nc(N[C@H]3CC[C@H](N)CC3)nc3c2ncn3C2CCCC2)CC1 [compound 129, dihydrochloride] , is IC50 under 20 nM?
a: True

Further cases:
q: Lab note: confirm whether the reported IC50 for this compound is below 20 nM, equality not counting. compound: N[C@H]1CC[C@H](Nc2nc(NC3CCN(C(=O)c4cccc5c4-c4ccccc4C5=O)CC3)c3ncn(C4CCCC4)c3n2)CC1 [compound 66]
a: False

---

Listed next: entries and their corresponding concentration at 0.083 h.
# RUN_DESCRIPTION: in vivo
# STATED_CONDITIONS: male, Hsd:ICR (CD-1), mouse, plasma, intravenous, 3 mg/kg
Write the answer as a number in ng/mL, unit excluded.

Worked examples, 4 compounds total:
Recorded concentration at 0.083 h (compound Cl.Cl.N[C@H]1CC[C@H](Nc2nc(NC3CCN(C(=O)Oc4ccc(Cl)cc4)CC3)c3ncn(C4CCCC4)c3n2)CC1 [compound 88, dihydrochloride] ): 1480

# concentration at 0.083 h of Cl.Cl.N[C@H]1CC[C@H](Nc2nc(NC3CCN(S(=O)(=O)c4ccc(F)cc4)CC3)c3ncn(C4CCCC4)c3n2)CC1 [compound 106, dihydrochloride] = 765

Lookup result for Cl.Cl.N[C@H]1CC[C@H](Nc2nc(NC3CCN(C(=O)Nc4ccc(C(F)(F)F)cc4)CC3)c3ncn(C4CCCC4)c3n2)CC1 [compound 149, dihydrochloride] ; measured concentration at 0.083 h: 3110

The recorded concentration at 0.083 h for entry Cl.Cl.N[C@H]1CC[C@H](Nc2nc(NC3CCN(C(=O)Oc4ccc([N+](=O)[O-])cc4)CC3)c3ncn(C4CCCC4)c3n2)CC1 [compound 89, dihydrochloride] equals 642

Further cases:
For Cc1ccc(OC(=O)N2CCC(Nc3nc(N[C@H]4CC[C@H](N)CC4)nc4c3ncn4C3CCCC3)CC2)cc1.Cl.Cl [compound 82, dihydrochloride] the compound record lists concentration at 0.083 h as 1460

Sample Cl.Cl.N[C@H]1CC[C@H](Nc2nc(NC3CCN(C(=O)Oc4ccc(F)cc4)CC3)c3ncn(C4CCCC4)c3n2)CC1 [compound 87, dihydrochloride] ; concentration at 0.083 h observed: 1170

Field concentration at 0.083 h (entry Cl.Cl.N[C@H]1CC[C@H](Nc2nc(NC3CCN(S(=O)(=O)c4cccc(C(F)(F)F)c4)CC3)c3ncn(C4CCCC4)c3n2)CC1 [compound 112, dihydrochloride] ) reads 2810
